Data provenance: patent US11111245B2

assay.system: CDK9/T1 (Homo sapiens)
protocol.description: ADP Glo Kinase assay CDK9/T1
Assay type: biochemical
test.context: CDK9T1; read-out: CDK inhibition, Ki (μM) CDK9T1
recorded.endpoint: Ki (µM)

molecule="CS(=O)(=O)N[C@H]1CC[C@H](Nc2ncc(F)c(-c3cnc4ccccn34)n2)CC1 [Compound 16]" data_value=0.029
molecule="N[C@H]1CC[C@H](Nc2ncc(Cl)c(-c3cnc4ccc(Br)cn34)n2)CC1 [Compound 12]" data_value=0.008
molecule="Cc1cnc(N[C@H]2CC[C@H](O)CC2)nc1-c1cnc2ccc(Nc3cncnc3)cn12 [Compound 108]" data_value=0.018

P: Cc1cnc(N[C@H]2CC[C@H](N)CC2)nc1-c1cnc2ccc(-c3ccoc3)cn12 [Compound 63]
Q: N[C@H]1CC[C@H](Nc2ncc(F)c(-c3cnc4ccc(-c5ccc(C(=O)N6CCNCC6)cc5)cn34)n2)CC1 [Compound 117]
R: CCN[C@H]1CC[C@H](Nc2ncc(C)c(-c3cnc4ccc(-c5ccccc5)cn34)n2)CC1 [Compound 131]
S: Cc1cnc(N[C@H]2CC[C@H](N)CC2)nc1-c1cnc2ccc(Nc3ccc(OC(F)F)nc3)cn12 [Compound 68]
input: Order field: Ki | Direction: descending (largest first) Note for the reader: the ranking is given by listing the labels in the order requested.
output: R, P, S, Q

###

System: leukemia cell lines
protocol.description: Resazurin cell viability assay on leukemia cell lines (72 h growth inhibition, GI50)
Type: cell-based
test.context: Homo sapiens, MV4-11 cells
recorded.endpoint: GI50 (µM)

Consider the worked cases shown below.
substance_smiles=Cc1cnc(N[C@H]2CC[C@H](N)CC2)nc1-c1cnc2ccc(Nc3cnccn3)cn12 data_value=0.212
substance_smiles=N[C@H]1CC[C@H](Nc2ncc(F)c(-c3cnc4ccc(-c5ccc(C(=O)N6CCNCC6)cc5)cn34)n2)CC1 data_value=0.045
substance_smiles=Cc1cncc(Nc2ccc3ncc(-c4nc(N[C@H]5CC[C@H](N)CC5)ncc4C)n3c2)c1 data_value=0.155

a: Cc1cnc(N[C@H]2CC[C@H](N)CC2)nc1-c1cnc2ccc(Oc3cccnc3)cn12
b: N[C@H]1CC[C@H](Nc2ncc(Cl)c(-c3cnc4c(-c5cccnc5)cc(C(F)(F)F)cn34)n2)CC1
c: Cc1cnc(N[C@H]2CC[C@@H](N)CC2)nc1-c1cnc2ccc(Nc3cccnc3)cn12
input: Order field: GI50 | Direction: descending (largest first) Note for the reader: the ranking is given by listing the labels in the order requested.
output: a, c, b

I: N[C@H]1CC[C@H](Nc2ncc(Cl)c(-c3cnc4ccccn34)n2)CC1
II: Cc1cnc(N[C@H]2CC[C@H](N)CC2)nc1-c1cnc2ccc(Nc3ccncn3)cn12
III: N[C@H]1CC[C@H](Nc2ncc(Cl)c(-c3cnc4ccc(-c5ccc(N6CCNCC6)nc5)cn34)n2)CC1
IV: Cc1cnc(N[C@H]2CC[C@H](N)CC2)nc1-c1cnc2cc(-c3cccnc3)ccn12
input: Form: Sort by [GI50] Order [ ascending ] Note for the reader: the ranking is given by listing the labels in the order requested.
output: I, IV, III, II

A: Cc1cnc(N[C@H]2CC[C@H](N)CC2)nc1-c1cnc2ccc(NC(=O)Cc3ccccc3)cn12
B: Cc1cnc(N[C@H]2CC[C@H](NC3CCN(C)CC3)CC2)nc1-c1cnc2ccc(-c3ccccc3)cn12
input: I'd appreciate it if you could identify which of A and B has the greater GI50. Answer = label.
output: A

1: CS(=O)(=O)N1CCC(Nc2ncc(F)c(-c3cnc4ccc(-c5ccccc5)cn34)n2)CC1
2: N[C@H]1CC[C@H](Nc2ncc(F)c(-c3cnc4cc(Cl)ccn34)n2)CC1
input: I'd appreciate it if you could identify which of 1 and 2 has the greater GI50. Answer = label.
output: 1

###

assay.system: CDKs and other kinases (Homo sapiens, UniProt P24941)
Construct: other: CDK2A; residual activity (%) at 10 μM CDK2A; compound at 10 μM
protocol.description: Radiometric kinase assay (Eurofins Pharma Discovery or Reaction Biology Corporation Kinase Profiler)
Type: biochemical
test.context: CDK2A; read-out: CDK inhibition, Ki (μM) CDK2A
recorded.endpoint: Ki (µM)

P: N[C@H]1CC[C@H](Nc2ncc(Cl)c(-c3cnc4ccc(-c5ccncc5)cn34)n2)CC1
Q: Cc1noc(C)c1-c1ccc2ncc(-c3nc(N[C@H]4CC[C@H](N)CC4)ncc3Cl)n2c1
input: When the recorded Ki values are compared, which is smaller: that of P or that of Q ? Answer = label.
output: P

1: N[C@H]1CC[C@H](Nc2ncc(Cl)c(-c3cnc4c(Br)cc(C(F)(F)F)cn34)n2)CC1
2: CS(=O)(=O)N1CCC(Nc2ncc(F)c(-c3cnc4ccc(-c5ccccc5)cn34)n2)CC1
3: Fc1cnc(NC2CCN(CC3CC3)CC2)nc1-c1cnc2ccccn12
4: N[C@H]1CC[C@H](Nc2ncc(Cl)c(-c3cnc4ccc(C(F)(F)F)cn34)n2)CC1
input: Order field: Ki | Direction: descending (largest first) Note for the reader: the ranking is given by listing the labels in the order requested.
output: 3, 1, 4, 2
(3: 1.12 µM, 1: 0.115 µM, 4: 0.063 µM, 2: 0.015 µM)

A: N[C@H]1CC[C@H](Nc2ncc(Cl)c(-c3cnc4ccc(Nc5cncnc5)cn34)n2)CC1
B: Cc1cnc(N[C@H]2CC[C@H](N)CC2)nc1-c1cnc2ccc(Nc3ccc(F)nc3)cn12
input: I'd appreciate it if you could identify which of A and B has the greater Ki. Answer = label.
output: B
(B: 0.3 µM, A: 0.019 µM)

A: Cc1cnc(N[C@H]2CC[C@H](N)CC2)nc1-c1cnc2ccc(Nc3cncnc3)cn12
B: CC(=O)NC1CCC(Nc2ncc(C)c(-c3cnc4ccc(Nc5cncnc5)cn34)n2)CC1 (stereo not shown)
C: CS(=O)(=O)N[C@H]1CC[C@H](Nc2ncc(F)c(-c3cnc4ccccn34)n2)CC1
D: CS(=O)(=O)N[C@H]1CC[C@H](Nc2ncc(Cl)c(-c3cnc4ccc(Br)cn34)n2)CC1
E: N[C@H]1CC[C@H](Nc2ncc(F)c(-c3cnc4ccc(C(F)(F)F)cn34)n2)CC1
input: Order field: Ki | Direction: descending (largest first) Note for the reader: the ranking is given by listing the labels in the order requested.
output: B, A, E, C, D

I: Cc1cnc(N[C@H]2CC[C@H](N)CC2)nc1-c1cnc2ccc(Nc3cncc(F)c3)cn12
II: Fc1cnc(N[C@H]2CC[C@H](N3CCC3)CC2)nc1-c1cnc2ccc(-c3ccccc3)cn12
III: COc1ccc(-c2ccc3ncc(-c4nc(N[C@H]5CC[C@H](N)CC5)ncc4Cl)n3c2)cn1
input: Order field: Ki | Direction: descending (largest first) Note for the reader: the ranking is given by listing the labels in the order requested.
output: III, I, II
(III: 0.51 µM, I: 0.18 µM, II: 0.111 µM)

###

assay.system: CDKs and other kinases (Homo sapiens, UniProt P24941)
Construct: other: CDK2A; residual activity (%) at 10 μM CDK2A; compound at 10 μM
protocol.description: Radiometric kinase assay (Eurofins Pharma Discovery or Reaction Biology Corporation Kinase Profiler)
Assay type: biochemical
test.context: CDK2A; compound at 10 μM; read-out: residual activity (%) at 10 μM CDK2A
recorded.endpoint: remaining activity at 10 µM (%)

Consider the worked cases shown below.
substance_smiles=COc1cnc(N[C@H]2CC[C@H](N)CC2)nc1-c1cnc2ccccn12 data_value=63
substance_smiles=Cc1cnc(N[C@H]2CC[C@H](N)CC2)nc1-c1cnc2cc(Nc3cncnc3)ccn12 data_value=12
substance_smiles=Cc1cnc(N[C@H]2CC[C@H](N)CC2)nc1-c1cnc2ccc(Nc3cncc(C(F)(F)F)c3)cn12 data_value=12
substance_smiles=Cc1cnc(N[C@H]2CC[C@H](N)CC2)nc1-c1cnc2ccc(Oc3cccnc3)cn12 data_value=11

A: Cc1cnc(N[C@H]2CC[C@H](N)CC2)nc1-c1cnc2cc(C(F)(F)F)c(-c3ccccc3)cn12
B: Cc1cnc(N[C@H]2CC[C@H](N)CC2)nc1-c1cnc2ccc(-c3ccc(N4CCOCC4)nc3)cn12
C: N[C@H]1CC[C@H](Nc2ncc(Cl)c(-c3cnc4ccc(NC(=O)c5ccccc5)cn34)n2)CC1
D: N[C@H]1CC[C@H](Nc2ncc(F)c(-c3cnc4ccc(NC(=O)Cc5ccccc5)cn34)n2)CC1
input: Form: Sort by [remaining activity at 10 µM] Order [ ascending ] Note for the reader: the ranking is given by listing the labels in the order requested.
output: D, A, C, B

###

assay.system: CDK9/T1 (Homo sapiens, UniProt P50750)
Sequence (P50750 whole entry): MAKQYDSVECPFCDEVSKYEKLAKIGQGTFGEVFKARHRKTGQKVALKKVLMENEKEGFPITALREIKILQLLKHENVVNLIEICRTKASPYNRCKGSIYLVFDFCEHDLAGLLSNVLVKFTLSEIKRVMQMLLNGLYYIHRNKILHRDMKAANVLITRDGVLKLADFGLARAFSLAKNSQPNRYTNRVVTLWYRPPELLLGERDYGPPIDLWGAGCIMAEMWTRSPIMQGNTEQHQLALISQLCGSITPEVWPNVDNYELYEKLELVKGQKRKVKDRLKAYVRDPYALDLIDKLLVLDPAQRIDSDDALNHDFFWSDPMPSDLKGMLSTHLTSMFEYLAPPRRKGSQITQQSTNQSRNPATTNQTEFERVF
Sequence (O60563 whole entry partner): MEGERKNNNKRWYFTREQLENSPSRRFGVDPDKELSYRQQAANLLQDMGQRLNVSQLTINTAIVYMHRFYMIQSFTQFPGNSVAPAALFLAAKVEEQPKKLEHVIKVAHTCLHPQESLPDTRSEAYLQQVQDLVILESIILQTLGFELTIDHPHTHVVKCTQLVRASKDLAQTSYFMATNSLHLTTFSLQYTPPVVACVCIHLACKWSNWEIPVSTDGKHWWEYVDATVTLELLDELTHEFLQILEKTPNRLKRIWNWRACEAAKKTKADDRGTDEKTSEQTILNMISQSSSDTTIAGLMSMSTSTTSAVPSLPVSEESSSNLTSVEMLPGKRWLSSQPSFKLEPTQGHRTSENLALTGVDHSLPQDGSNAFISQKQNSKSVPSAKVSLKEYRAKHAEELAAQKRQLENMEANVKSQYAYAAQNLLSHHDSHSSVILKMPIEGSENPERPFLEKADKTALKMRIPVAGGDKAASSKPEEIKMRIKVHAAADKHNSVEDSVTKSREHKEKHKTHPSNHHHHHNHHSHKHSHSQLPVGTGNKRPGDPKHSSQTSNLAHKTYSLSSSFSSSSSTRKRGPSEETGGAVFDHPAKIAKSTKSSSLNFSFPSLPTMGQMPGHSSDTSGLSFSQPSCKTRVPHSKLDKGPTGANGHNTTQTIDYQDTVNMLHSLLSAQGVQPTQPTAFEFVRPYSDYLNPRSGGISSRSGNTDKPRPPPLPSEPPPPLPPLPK
protocol.description: ADP Glo Kinase assay CDK9/T1
Format: biochemical
test.context: CDK9T1; read-out: CDK inhibition, Ki (μM) CDK9T1
recorded.endpoint: Ki (µM)

Consider the worked cases shown below.
molecule="COC(=O)[C@H]1CC[C@H](Nc2ncc(C)c(-c3cnc4ccc(Nc5cncnc5)cn34)n2)CC1 [Compound 157]" assay_system="CDK9/T1 (Homo sapiens, UniProt P50750)" data_value=0.527
molecule="Fc1cnc(N[C@H]2CC[C@H](N3CCC3)CC2)nc1-c1cnc2ccc(-c3ccccc3)cn12 [Compound 138]" assay_system="CDK9/T1 (Homo sapiens, UniProt P50750)" data_value=0.006
molecule="CN1CCC(Nc2ncc(F)c(-c3cnc4ccccn34)n2)CC1 [Compound 19]" assay_system="CDK9/T1 (Homo sapiens, UniProt P50750)" data_value=0.078
molecule="CCS(=O)(=O)N1CCC(Nc2ncc(F)c(-c3cnc4ccc(-c5ccccc5)cn34)n2)CC1 [Compound 163]" assay_system="CDK9/T1 (Homo sapiens, UniProt P50750)" data_value=4.57
molecule="Cc1noc(C)c1-c1ccc2ncc(-c3nc(N[C@H]4CC[C@H](N)CC4)ncc3Cl)n2c1 [Compound 83]" assay_system="CDK9/T1 (Homo sapiens, UniProt P50750)" data_value=0.065
molecule="Cc1cnc(N[C@H]2CC[C@H](N)CC2)nc1-c1cnc2ccc(N(C)c3cccnc3)cn12 [Compound 122]" assay_system="CDK9/T1 (Homo sapiens, UniProt P50750)" data_value=0.3
molecule="COc1ccc(Nc2ccc3ncc(-c4nc(N[C@H]5CC[C@H](N)CC5)ncc4C)n3c2)cn1 [Compound 127]" assay_system="CDK9/T1 (Homo sapiens, UniProt P50750)" data_value=0.045
molecule="Cc1cnc(N[C@H]2CC[C@@H](N)CC2)nc1-c1cnc2ccc(-c3ccccc3)cn12 [Compound 91]" assay_system="CDK9/T1 (Homo sapiens, UniProt P50750)" data_value=0.082
molecule="N[C@H]1CC[C@H](Nc2ncc(F)c(-c3cnc4cc(Cl)ccn34)n2)CC1 [Compound 43]" assay_system="CDK9/T1 (Homo sapiens, UniProt P50750)" data_value=0.008
molecule="Cc1cnc(N[C@H]2CC[C@H](N3CCC3)CC2)nc1-c1cnc2ccc(Nc3cncnc3)cn12 [Compound 141]" assay_system="CDK9/T1 (Homo sapiens, UniProt P50750)" data_value=0.011

a: N[C@H]1CC[C@H](Nc2ncc(F)c(-c3cnc4ccc(-c5cccnc5)cn34)n2)CC1 [Compound 26]
b: N[C@H]1CC[C@H](Nc2ncc(Cl)c(-c3cnc4ccccn34)n2)CC1 [Compound 42]
c: CC(C)(C)OC(=O)N1CCC(Nc2ncc(F)c(-c3cnc4ccccn34)n2)CC1 [Compound 20]
input: Order field: Ki | Direction: descending (largest first) Note for the reader: the ranking is given by listing the labels in the order requested.
output: c, b, a
(c: 0.829 µM, b: 0.061 µM, a: 0.003 µM)

I: N[C@H]1CC[C@H](Nc2ncc(Cl)c(-c3cnc4ccc(-c5ccncc5)cn34)n2)CC1 [Compound 36]
II: O[C@H]1CC[C@H](Nc2ncc(Cl)c(-c3cnc4ccc(-c5cccnc5)cn34)n2)CC1 [Compound 166]
input: I'd appreciate it if you could identify which of I and II has the greater Ki. Answer = label.
output: II
